biological target: T1, canine NGF tagged at the C-terminus with the Flag tag (canine, UniProt A0A8I3PYI3 122-241); assay: SPR off-rate screen, Fab-SASA on BSA chip
T1 construct: mature; Expressed with baculovirus technology; also called feline NGF (processed form identical)
T1 sequence (A0A8I3PYI3 entry or part of it): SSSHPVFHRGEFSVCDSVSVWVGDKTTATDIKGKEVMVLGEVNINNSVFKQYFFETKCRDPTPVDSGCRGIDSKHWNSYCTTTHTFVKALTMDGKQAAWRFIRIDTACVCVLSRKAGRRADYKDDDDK
Observable: Kd

What value of Kd has been reported for the following binder? felinized clone 101 Fab-SASA variant S30L (VL) (Fab, V domains shown, not shown: small tags and cut ends) VH: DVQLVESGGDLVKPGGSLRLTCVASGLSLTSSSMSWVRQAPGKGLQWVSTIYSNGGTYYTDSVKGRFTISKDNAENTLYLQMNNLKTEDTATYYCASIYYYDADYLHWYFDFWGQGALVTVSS VL: EIQMTQSPTSLSASVGDRVTITCRASEGILNNLSWYQQTPGKAPKLLIYATSNLHSGVPSRFSGSGSGTDFTLTISSLQPEDFATYYCQQGYKWPLTFGGGTKLEITR
1.87 nM
